# Test Description: Cmax in Sprague-Dawley rat at 1 mg/kg, iv
# Type: ADME, organism-based
# Parameters: route intravenous, dose 1 mg/kg
# Particulars: in vivo
Recorded Cmax for the following compounds
Assay Readout: Cmax (ng/mL)

# Compound, Units Symbol, Value
rows = [
    ("Oc1ccccc1C1=NNC(c2ccc(Cl)cc2)C1 (configuration not stated)", "ng/mL", 448),
    ("Oc1ccccc1C1=NNC(c2ccc(Br)cc2)C1 (configuration not stated)", "ng/mL", 505),
]

----------
# Test Description: Cmax in Sprague-Dawley rat at 5 mg/kg, po
# Type: ADME, organism-based
# Design: route oral, dose 5 mg/kg
# Particulars: in vivo

# Compound, Cmax (ng/mL)
data = [
    ("Oc1ccccc1C1=NNC(c2ccc(Cl)cc2)C1 (configuration not stated)", 51.6),
    ("Oc1ccccc1C1=NNC(c2ccc(Br)cc2)C1 (configuration not stated)", 47.4),
]
